Target: T1, soluble monomeric human MUC16, truncated format encompassing the last five SEA domains of Mucin-16 (human)
T1 construct: also called hMUC16.mmh; MUC16 "nub"
T1 chain: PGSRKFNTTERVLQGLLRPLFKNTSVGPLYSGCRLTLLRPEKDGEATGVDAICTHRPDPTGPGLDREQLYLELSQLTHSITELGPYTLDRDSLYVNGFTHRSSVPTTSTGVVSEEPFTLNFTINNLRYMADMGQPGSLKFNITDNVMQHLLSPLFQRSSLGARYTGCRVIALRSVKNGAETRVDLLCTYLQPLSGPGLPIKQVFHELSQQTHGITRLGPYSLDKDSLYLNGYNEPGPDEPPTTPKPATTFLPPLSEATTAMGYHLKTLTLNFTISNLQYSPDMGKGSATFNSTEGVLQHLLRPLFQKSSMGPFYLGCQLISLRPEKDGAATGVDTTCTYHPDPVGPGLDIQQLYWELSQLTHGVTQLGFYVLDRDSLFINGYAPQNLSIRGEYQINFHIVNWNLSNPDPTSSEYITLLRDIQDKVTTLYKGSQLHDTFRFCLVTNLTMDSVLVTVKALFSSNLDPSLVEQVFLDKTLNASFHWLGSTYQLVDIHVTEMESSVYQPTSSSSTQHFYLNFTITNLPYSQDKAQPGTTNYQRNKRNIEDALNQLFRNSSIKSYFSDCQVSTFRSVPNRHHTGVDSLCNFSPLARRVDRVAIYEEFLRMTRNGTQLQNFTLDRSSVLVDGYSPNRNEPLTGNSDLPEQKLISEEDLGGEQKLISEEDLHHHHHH
Experiment: SPR Biacore, antibody captured, soluble monomeric hMUC16.mmh injected, 25C
As shown below, each of these binders has a reported koff value.
measurement label: koff

INSERT INTO assay_data (binder, reported_value) VALUES
  ('H1H8783P (antibody, human IgG1, V domains shown, Human IgG1 (H1H)) VH: QVQLVESGGGVVQPGRSLRLSCAASGFTFSDHAMHWVRQAPGKGLEWVAVISYHGTDKQYGDSVKGRFTISRDNSKNALYLQMNSLRPEDTAMYYCAKDGYDFWNAYSLFDYWGQGTLVTVSS VL: DIQMTQSPSSLSASVGDRVTITCRASQSISNYLNWYQQKPGKAPKLLIYTASSLLSGVPSRFSGSGSGTDFTLTISSLQPEDFATYYCQQSYSTPPITFGQGTRLEIK', '0.000107 s⁻¹'),
  ('H1H8808P (antibody, human IgG1, V domains shown, Human IgG1 (H1H)) VH: QVQLVESGGGVVQPGRSLRLSCVASGFTFSNYGIHWVRQAPGKGLEWVAVISDDGSFKFYADSVKGRFTISRDNSKNTLYLQMNSLRVEDSAVYHCAKWQHNWNDGGFDYWGQGTLVTVSS VL: EIVLTQSPDTLSLSPGERATLSCRASQSLSSNYLAWYRQKPGQAPRLLIYGISSRATGIPDRFSGSGSGTDFTLTISRLEPEDFAVYYCQQYGSSPWTFGQGTKVEIK', '0.000216 s⁻¹');
